Measured values drawn from PubChem BioAssay AID2060510 for this set.

System: 439559-082-T-J2-PDC spheroids viability;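 also: spheroids exposed to the agents for 7 days before readout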
Assay: Anticancer human tumor 439559-082-T-J2-PDC patient-derived colon adenocarcinoma cell line growth inhibition [GQUAD]; active = viability on the fitted dose curve at most 10% of control; inactive = the rest
Conditions: second compound 10 µM; first compound 10 µM
Hi! Could you answer with just one of these? active, inactive

Solved entries:
# input Recorded call for CCCS(=O)(=O)Nc1ccc(F)c(C(=O)c2c[nH]c3ncc(-c4ccc(Cl)cc4)cc23)c1F + CN(C)c1ccc(Nc2c3ccc(NC(=O)CCN4CCCC4)cc3nc3cc(NC(=O)CCN4CCCC4)ccc23)cc1 ?
# output inactive

# input Call for entry Cc1cccc(N(C)C(=O)C2C(O)CCN2c2nc(C)cc(C(F)(F)F)c2C#N)c1 (centres undefined) + CN(C)c1ccc(Nc2c3ccc(NC(=O)CCN4CCCC4)cc3nc3cc(NC(=O)CCN4CCCC4)ccc23)cc1 :
# output inactive

# input Call for entry O=c1[nH]cc(F)c(=O)[nH]1 + CN(C)c1ccc(Nc2c3ccc(NC(=O)CCN4CCCC4)cc3nc3cc(NC(=O)CCN4CCCC4)ccc23)cc1 :
# output inactive

# input Short answer needed: outcome of this test for CC(=O)O[C@H]1C(=O)[C@@]2(C)[C@H]([C@H](OC(=O)c3ccccc3)[C@]3(O)C[C@H](OC(=O)[C@H](O)[C@@H](NC(=O)c4ccccc4)c4ccccc4)C(C)=C1C3(C)C)[C@]1(OC(C)=O)CO[C@@H]1C[C@@H]2O + Cc1[nH]c2ccc(F)cc2c1-c1nc2c3cccnc3c3ncccc3c2[nH]1 ?
# output active

# input Recorded call for Nc1ccn(C2OC(CO)C(O)C2(F)F)c(=O)n1 (centres undefined) + Cc1[nH]c2ccc(F)cc2c1-c1nc2c3cccnc3c3ncccc3c2[nH]1 ?
# output inactive

More entries:
# input Kindly provide the recorded test outcome for the following compound: CC(C)(O)C1CCC(Nc2ccc3ncc(-c4cccc(C(F)(F)F)c4)n3n2)CC1 (centres undefined) + CN(C)c1ccc(Nc2c3ccc(NC(=O)CCN4CCCC4)cc3nc3cc(NC(=O)CCN4CCCC4)ccc23)cc1
# output active

# input Please state the recorded outcome for this compound: CC1COCCN1c1cc(-c2ccnn2C)c2ccnc(-c3ccn[nH]3)c2n1 (centres undefined) + CN(C)c1ccc(Nc2c3ccc(NC(=O)CCN4CCCC4)cc3nc3cc(NC(=O)CCN4CCCC4)ccc23)cc1
# output inactive

# input What is the recorded call for this compound in the test? Nc1ccn(C2OC(CO)C(O)C2(F)F)c(=O)n1 (centres undefined) + Cc1cnc(CNC(=O)c2c(=O)c3ccc(N4CCCN(C)CC4)nc3n3c2sc2ccccc23)cn1
# output inactive

# input // return assay outcome for CC1COCCN1c1cc(-c2ccnn2C)c2ccnc(-c3ccn[nH]3)c2n1 (centres undefined) + Cc1[nH]c2ccc(F)cc2c1-c1nc2c3cccnc3c3ncccc3c2[nH]1
# output inactive

# input Record request — test call for O=C(c1cc(Cc2n[nH]c(=O)c3ccccc23)ccc1F)N1CCN(C(=O)C2CC2)CC1 + Cc1cnc(CNC(=O)c2c(=O)c3ccc(N4CCCN(C)CC4)nc3n3c2sc2ccccc23)cn1
# output inactive

# input Record request — test call for COc1cccc2c1C(=O)c1c(O)c3c(c(O)c1C2=O)CC(O)(C(=O)CO)CC3OC1CC(N)C(O)C(C)O1 (centres undefined) + Cc1cnc(CNC(=O)c2c(=O)c3ccc(N4CCCN(C)CC4)nc3n3c2sc2ccccc23)cn1
# output inactive

# input Outcome? C=CCn1c(=O)c2cnc(Nc3ccc(N4CCN(C)CC4)cc3)nc2n1-c1cccc(C(C)(C)O)n1 + Cc1cnc(CNC(=O)c2c(=O)c3ccc(N4CCCN(C)CC4)nc3n3c2sc2ccccc23)cn1
# output inactive

# input Please indicate how the test categorized CC(C)(O)C1CCC(Nc2ccc3ncc(-c4cccc(C(F)(F)F)c4)n3n2)CC1 (centres undefined) + Cc1cnc(CNC(=O)c2c(=O)c3ccc(N4CCCN(C)CC4)nc3n3c2sc2ccccc23)cn1 .
# output active

# input Dear colleague, could you share the recorded outcome for C=CC(=O)N1CCN(c2nc(=O)n(-c3c(C)ccnc3C(C)C)c3nc(-c4c(O)cccc4F)c(F)cc23)C(C)C1 (centres undefined) + Cc1[nH]c2ccc(F)cc2c1-c1nc2c3cccnc3c3ncccc3c2[nH]1 when you have a moment?
# output inactive
